- Test system: SK-MEL-28 melanoma
- Assay protocol: NCI-60 one-dose screen, 48 h (100 = growth as untreated, 0 = no growth, -100 = all killed)
- Condition set: 10 µM unless noted
About 83,000 compounds went through this panel and 20% of them were active in at least one assay; those are over-represented in the sample as a whole. Active and inactive are the calls of the source. Rule for the calls: active = growth percent below 10; inactive = the rest.
Quantity kind: growth

compound="CC1(C)C(O)NC(Cl)=C(C#N)C1(C#N)C#N (stereo unspecified)" quantity_kind=growth recorded_measurement="108% (inactive)"
compound=CCCCCCCCCc1cc[n+](CC(=O)c2ccc([N+](=O)[O-])cc2)cc1 quantity_kind=growth recorded_measurement="12.3% (inactive)"
compound="COc1ccc(C(=O)N2N=C(c3ccc(Br)cc3)CC2c2cn(-c3ccccc3)nc2-c2ccccc2)cc1 (stereo unspecified)" quantity_kind=growth recorded_measurement="61.2% (inactive)"
compound=COc1cc(CNC(=O)CCCC/C=C/C(C)C)ccc1OCc1nnc(Nc2ccccc2F)o1 quantity_kind=growth recorded_measurement="85.2% (inactive)"
compound=COc1ccc(Cn2cc3c(c2-c2ccc(O)cc2)CCc2cnoc2-3)cc1 quantity_kind=growth recorded_measurement="54.3% (inactive)"
compound="C/C=C(/C)C(=O)OC1C=C(CO)C(=O)C(OC(=O)C(C)(O)C(C)Cl)C1C(C)C (stereo unspecified)" quantity_kind=growth recorded_measurement="-48.9% (active)"

Record summary for COC(=O)C(C)[C@H]1CC[C@@H]2[C@]1(C)CC=C1[C@]23C=C[C@]2(C[C@@H](OC(C)=O)CC[C@]12C)C(C(=O)OC)C3C(=O)OC (stereo partly specified) : reported growth = 95% (inactive)

Record summary for CCCNC(=O)Oc1ccc(/C(=C(/C)Cc2ccc(OC)cc2)c2ccc(OCCN3CCCC3)cc2)cc1 : reported growth = 55.8% (inactive)

Record summary for CC(CCN1CCN(CCC(C)CC(C)(C)C)C1CC(C)CC(C)(C)C)CC(C)(C)C (stereo unspecified) : reported growth = 105% (inactive)

Record summary for N#Cc1ccc(NC2c3ccccc3CC2O)cc1 (stereo unspecified) : reported growth = 109% (inactive)

Record summary for COc1ccc2nc3cc(Cl)ccc3c(NCCCNC(C)=O)c2c1 : reported growth = 38.8% (inactive)

Record summary for CCCCCCCCC/C(=N\NC(=O)c1ccncc1)c1ccc(O)c(O)c1O : reported growth = 43.7% (inactive)

Record summary for Cc1ccnc2c(NC(C)CCCN)cc(O)c(O)c12 (stereo unspecified) : reported growth = 115% (inactive)

Record summary for Cc1ccc(OCCn2ccc(=O)n(CCOc3ccc(Cl)cc3C(=O)c3cc(C)cc(C)c3)c2=O)cc1 : reported growth = 68.3% (inactive)

Record summary for NC(N)=Nc1ccc(/C=C2\C=Cc3ccccc32)cc1 : reported growth = 91.6% (inactive)

Record summary for COc1ccc(CN2C(=O)/C(=C\C(=O)c3ccc(OCCN4CCCC4)cc3)c3ccccc32)cc1 : reported growth = 103% (inactive)

Record summary for COc1ccc(Cn2cc3c(c2)-c2oncc2CC3)cc1OC : reported growth = 50.3% (inactive)

Record summary for N#Cc1c2cccnc2c2nnc3cc(Cl)c(Cl)cc3n12 : reported growth = 17.6% (inactive)

Record summary for COC(=O)C(Cc1cnc[nH]1)N1CC(=O)N2[C@@H](c3ccccc3)SC[C@H]2C1=O (stereo partly specified) : reported growth = 117% (inactive)

Record summary for CC(=O)Nc1ccc(CC#N)cc1Br : reported growth = 114% (inactive)

Record summary for Cc1nc2ccccc2c(=O)n1-c1cccc(OCc2cn(-c3cccc(O)c3)nn2)c1 : reported growth = 103% (inactive)

Record summary for COc1ccc(/C(=C(\c2ccccc2)[N+](=O)[O-])c2ccc(OCCN3CCCC3)cc2)cc1 : reported growth = -10.3% (active)

Record summary for CCCCCCCCCC[N+](C)(C)C : reported growth = 51.8% (inactive)

Record summary for Oc1ccc2ccccc2c1/C=N\Nc1ccccn1 : reported growth = 38.9% (inactive)

Record summary for [2H]c1nc(=Nc2cc(NC(=O)C=C)c(N(C)CCN(C)C)cc2OC)[nH]c(-c2cn(C([2H])([2H])[2H])c3ccccc23)c1[2H] : reported growth = 37.5% (inactive)

Record summary for CCCCCCN(CCCCCC)CCC(=O)Nc1ccc(S(=O)(=O)c2ccc(NC(=O)CCN(CCCCCC)CCCCCC)cc2)cc1 : reported growth = 91.9% (inactive)

Record summary for CCC1(CC)C(OC)NC(Br)=C(C#N)C1(C#N)C(N)=O (stereo unspecified) : reported growth = 114% (inactive)

----------
- Test system: HCT-15 colon
- Assay protocol: NCI-60 one-dose screen, 48 h (100 = growth as untreated, 0 = no growth, -100 = all killed)
- Condition set: 10 µM unless noted
This is part of a sample that, as a whole, favours compounds with a hit. Of some 83,000 tested, about 20% had one in any assay. Active and inactive are the calls of the source. Rule for the calls: active = growth percent below 10; inactive = the rest.
growth: recorded values

compound=COc1ccc(/C(=C(\c2ccccc2)[N+](=O)[O-])c2ccc(OCCN3CCCC3)cc2)cc1 quantity_kind=growth recorded_measurement="6.54% (active)"
compound=COC(=O)c1ccc(C(=Nc2ccc(N(C)C(=O)CN3CCN(C)CC3)cc2)c2c(O)[nH]c3ccc(C(=O)OC)cc23)cc1 quantity_kind=growth recorded_measurement="27% (inactive)"
compound=Cc1nc2ccccc2c(=O)n1-c1cccc(OCc2cn(-c3cccc(O)c3)nn2)c1 quantity_kind=growth recorded_measurement="107% (inactive)"

Entry CCN(CC)CCCC(C)Nc1c(C)cnc2cc(Cl)c(C)cc12 (stereo not given) , tested on HCT-15 colon, has a reported growth of 86.8% (inactive)

Entry CCOC(=O)C1CCCN1C(=O)C1(NC(C)=O)CCCC1 (stereo not given) , tested on HCT-15 colon, has a reported growth of 106% (inactive)

----------
- Tested on: DU-145 prostate
- Assay protocol: NCI-60 one-dose screen, 48 h (100 = growth as untreated, 0 = no growth, -100 = all killed)
- Condition set: 10 µM unless noted
The panel holds about 83,000 compounds, 20% with a hit somewhere; the sample as a whole holds those more often.
Quantity kind: growth (%)
Please give a number only; it is taken to be in %.

// solved cases for growth follow
smiles_notation=O=C(O)/C(Br)=C/c1c[nH]c2ccc(Br)cc12 quantity_kind=growth result_units=% recorded_measurement=115
smiles_notation=O=C(/C(Br)=C/c1ccccc1)c1ccccc1 quantity_kind=growth result_units=% recorded_measurement=64.1
smiles_notation=Oc1ccccc1/C=N/N=C\c1ccccc1Cl quantity_kind=growth result_units=% recorded_measurement=99.5

Entry COc1cc2ncnc(Nc3ccc4c(cnn4C(=O)Nc4ccccc4)c3)c2cc1OC , tested on DU-145 prostate, has a reported growth of 89.3

Entry CCC(C)(CC)c1ccc(O)c(C)c1 , tested on DU-145 prostate, has a reported growth of 114

Entry CNCCCNCCCCNCCCN1C(=O)c2ccc3c4c(ccc(c24)C1=O)C(=O)N(CCCNCc1ccccc1OC)C3=O , tested on DU-145 prostate, has a reported growth of 29.1

----------
- System: SK-MEL-28 melanoma
- Assay protocol: NCI-60 one-dose screen, 48 h
- Condition set: 10 µM unless noted
This is part of a sample that, as a whole, favours compounds with a hit. Of some 83,000 tested, about 20% had one in any assay. Calls of active or inactive are those of the source. The calls were made as follows: active = growth percent below 10; inactive = the rest.
Write down one outcome, taken from Y for active, N for inactive

// below: answered compounds
compound=Br/C(=N\Nc1nn[nH]n1)c1ccccc1 assigned_class=N
compound=CCOC1=C(Cl)C(=O)C(OCC)=C(Cl)C1=O assigned_class=N
compound=CC(=O)O.[In] assigned_class=N
compound=CCCCCCNC(=O)Oc1ccc(/C(=C(/C)Cc2ccc(OC)cc2)c2ccc(OCCN(C)C)cc2)cc1 assigned_class=N
compound=N#Cc1ccc(OCc2nc(N)nc(N)c2-c2ccc(Cl)c(Cl)c2)cc1 assigned_class=N
compound=Cc1ccc(CC(=O)O)c(C)c1 assigned_class=N

// return assay outcome for O=C(O)c1ccc(Br)nc1
N

// return assay outcome for CCCCCCCCCCCC(=O)OC(C)C(=O)Nc1ccccc1 (stereo not drawn)
N

// return assay outcome for COc1ccc(Oc2[nH]n(C3=Nc4ccccc4Sc4ccccc43)c(=O)c2C#N)cc1
N

// return assay outcome for COC(=O)c1ccc2[nH]c(O)c(C(=Nc3ccc(N(C)C(=O)CN4CCN(C)CC4)cc3)c3ccc(C)cc3)c2c1
Y

// return assay outcome for CC1=C(C)C(=O)C(C(C)C2=C(C)C(=O)C(C)=C(C)C2=O)=C(C)C1=O
N

// return assay outcome for c1cc(C2CCCCC2)ccc1OCCCCCCN1CCNCC1
N

// return assay outcome for CC(Br)c1nc2ccccc2cc1C(N)=O (stereo not drawn)
N

----------
growth: recorded values
- System: 786-0 renal
- Assay protocol: NCI-60 one-dose screen, 48 h (100 = growth as untreated, 0 = no growth, -100 = all killed)
- Condition set: 10 µM unless noted
About 83,000 compounds went through this panel and 20% of them were active in at least one assay; those are over-represented in the sample as a whole.
Please give a number only; it is taken to be in %.

// solved cases for growth follow
compound=N#Cc1ccc(OCc2nc(N)nc(N)c2-c2ccc(Cl)c(Cl)c2)cc1 recorded_measurement=25.8
compound=CC(=O)NNC(=O)c1sc(NC(C)=O)nc1C recorded_measurement=122
compound="CC(C)OCC1CO1 (stereo unspecified)" recorded_measurement=113

Entry O=S(=O)(Cc1cccc2c(CS(=O)(=O)c3ccc(Cl)cc3)cccc12)c1ccc(Cl)cc1 , tested on 786-0 renal, has a reported growth of 119

Entry CC(=O)N(N=O)c1ccc([N+](=O)[O-])cc1Cl , tested on 786-0 renal, has a reported growth of 74.1

Entry C/C=C(/C)C(=O)OC1C=C(CO)C(=O)C(OC(=O)C2(C)OC2C)C1C(C)C (stereo unspecified) , tested on 786-0 renal, has a reported growth of -89.7

Entry O=C(NC1CCN(Cc2ccccc2)CC1)c1cc(-c2cccnc2)nc2ccc(Cl)cc12 , tested on 786-0 renal, has a reported growth of 78.7
